Target: HiBiT-BRM (Homo sapiens, UniProt P51531)
Construct: expressed in transfected cells
Sequence (P51531 whole entry): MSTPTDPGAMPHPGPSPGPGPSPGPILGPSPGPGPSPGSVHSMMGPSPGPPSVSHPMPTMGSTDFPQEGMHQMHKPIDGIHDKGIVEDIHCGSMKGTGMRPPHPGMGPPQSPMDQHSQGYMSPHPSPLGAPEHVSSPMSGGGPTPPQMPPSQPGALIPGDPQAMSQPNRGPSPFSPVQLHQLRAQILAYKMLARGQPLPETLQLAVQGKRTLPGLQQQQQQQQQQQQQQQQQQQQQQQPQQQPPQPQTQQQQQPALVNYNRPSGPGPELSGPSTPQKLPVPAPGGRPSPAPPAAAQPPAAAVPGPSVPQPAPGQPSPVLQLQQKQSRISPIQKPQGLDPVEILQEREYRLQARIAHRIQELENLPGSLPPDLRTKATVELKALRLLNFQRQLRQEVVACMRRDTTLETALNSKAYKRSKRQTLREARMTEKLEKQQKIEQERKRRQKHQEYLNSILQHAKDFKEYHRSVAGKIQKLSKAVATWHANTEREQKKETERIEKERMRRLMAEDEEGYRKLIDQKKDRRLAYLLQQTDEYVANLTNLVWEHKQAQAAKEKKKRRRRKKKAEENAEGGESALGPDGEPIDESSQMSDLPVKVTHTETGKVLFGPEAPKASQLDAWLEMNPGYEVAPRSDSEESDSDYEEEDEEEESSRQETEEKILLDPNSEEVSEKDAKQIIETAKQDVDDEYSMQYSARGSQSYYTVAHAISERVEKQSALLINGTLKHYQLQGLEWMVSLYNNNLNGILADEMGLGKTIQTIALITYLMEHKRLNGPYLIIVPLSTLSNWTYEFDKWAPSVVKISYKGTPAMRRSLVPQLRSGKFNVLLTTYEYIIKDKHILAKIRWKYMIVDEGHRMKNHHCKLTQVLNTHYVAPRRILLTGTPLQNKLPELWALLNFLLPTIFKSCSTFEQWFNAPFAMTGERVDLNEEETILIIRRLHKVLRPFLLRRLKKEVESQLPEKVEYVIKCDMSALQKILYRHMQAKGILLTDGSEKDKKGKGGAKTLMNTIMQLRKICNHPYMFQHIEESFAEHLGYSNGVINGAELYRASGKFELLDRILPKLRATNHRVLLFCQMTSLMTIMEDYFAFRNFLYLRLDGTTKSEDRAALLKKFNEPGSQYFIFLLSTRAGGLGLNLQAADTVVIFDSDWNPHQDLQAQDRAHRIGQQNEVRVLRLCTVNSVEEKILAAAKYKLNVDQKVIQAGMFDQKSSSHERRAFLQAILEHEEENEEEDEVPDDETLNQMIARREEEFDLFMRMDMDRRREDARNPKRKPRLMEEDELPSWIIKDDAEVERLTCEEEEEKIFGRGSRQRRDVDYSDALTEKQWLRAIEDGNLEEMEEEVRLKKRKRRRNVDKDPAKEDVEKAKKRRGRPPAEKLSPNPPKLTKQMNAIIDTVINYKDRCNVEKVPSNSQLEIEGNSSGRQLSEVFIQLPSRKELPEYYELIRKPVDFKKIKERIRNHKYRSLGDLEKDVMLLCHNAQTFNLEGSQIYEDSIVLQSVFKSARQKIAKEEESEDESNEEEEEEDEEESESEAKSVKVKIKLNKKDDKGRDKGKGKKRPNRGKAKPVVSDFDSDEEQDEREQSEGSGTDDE
Assay: HiBiT-BRM cell-based degradation assay (Nano-Glo HiBiT Lytic Detection)
Conditions: HeLa cells expressing HiBiT-BRM, 24 h; read-out: BRM HiBit Degradation IC50
Counter-ions that a name gives are not always drawn.
Entries and their measured DC50 follow.

# annotated cases, reported DC50 shown
CN(CCCCCNc1cccc2c1C(=O)N(C1CCC(=O)NC1=O)C2=O)Cc1ccc(CCOc2cc(-c3ccccc3O)nnc2N)cc1 (centres unmarked) [Compound 156, formate]	> 10 nM
Nc1nnc(-c2ccccc2O)cc1OCCc1ccc(C(=O)NCCCCCCC(=O)NCc2ccc(S(=O)(=O)Nc3cccc4c(Cl)c[nH]c34)cc2)cc1 [Compound 13]	> 1000 nM
Nc1nnc(-c2ccccc2O)cc1OCCc1ccc(C(=O)NCCCC(=O)NCc2ccc(S(=O)(=O)Nc3cccc4c(Cl)c[nH]c34)cc2)cc1 [Compound 16]	> 1000 nM
Nc1nnc(-c2ccccc2O)cc1OCCc1ccc(CNC(=O)CCCCOc2ccc3c(c2)CN(C2CCC(=O)NC2=O)C3=O)cc1 (centres unmarked) [Compound 129]	> 1000 nM
Cc1ncsc1-c1ccc([C@H](C)NC(=O)[C@@H]2C[C@@H](O)CN2C(=O)[C@@H](c2cc(OCCN3CC(OC4CCN(C(=O)c5ccc(CCOc6cc(-c7ccccc7O)nnc6N)cc5)CC4)C3)no2)C(C)C)cc1 [Compound 237]	> 10 nM
Cc1ncsc1-c1ccc([C@H](C)NC(=O)[C@@H]2C[C@@H](O)CN2C(=O)[C@@H](c2cc(OCCN3CC(CC(=O)NCc4ccc(CCOc5cc(-c6ccccc6O)nnc5N)cc4)C3)no2)C(C)C)cc1 [Compound 193]	> 100 nM

(Q) Given Nc1nnc(-c2ccccc2O)cc1OCCc1ccc(C(=O)NCCCCCCCCCCCC(=O)NCc2ccc(S(=O)(=O)Nc3cccc4c(Cl)c[nH]c34)cc2)cc1 [Compound 22] , respond with its DC50.
(A) > 1000 nM

(Q) Given Cc1ncsc1-c1ccc(CNC(=O)[C@@H]2C[C@@H](O)CN2C(=O)[C@@H](NC(=O)CCCC(=O)NCc2ccc(CCOc3cc(-c4ccccc4O)nnc3N)cc2)C(C)(C)C)cc1 [Compound 34] , respond with its DC50.
(A) > 1000 nM

----------
Entries and their measured Dmax follow.
Target: HiBit-BRG1 (Homo sapiens, UniProt P51532)
Construct: expressed in transfected cells
Sequence (P51532 whole entry): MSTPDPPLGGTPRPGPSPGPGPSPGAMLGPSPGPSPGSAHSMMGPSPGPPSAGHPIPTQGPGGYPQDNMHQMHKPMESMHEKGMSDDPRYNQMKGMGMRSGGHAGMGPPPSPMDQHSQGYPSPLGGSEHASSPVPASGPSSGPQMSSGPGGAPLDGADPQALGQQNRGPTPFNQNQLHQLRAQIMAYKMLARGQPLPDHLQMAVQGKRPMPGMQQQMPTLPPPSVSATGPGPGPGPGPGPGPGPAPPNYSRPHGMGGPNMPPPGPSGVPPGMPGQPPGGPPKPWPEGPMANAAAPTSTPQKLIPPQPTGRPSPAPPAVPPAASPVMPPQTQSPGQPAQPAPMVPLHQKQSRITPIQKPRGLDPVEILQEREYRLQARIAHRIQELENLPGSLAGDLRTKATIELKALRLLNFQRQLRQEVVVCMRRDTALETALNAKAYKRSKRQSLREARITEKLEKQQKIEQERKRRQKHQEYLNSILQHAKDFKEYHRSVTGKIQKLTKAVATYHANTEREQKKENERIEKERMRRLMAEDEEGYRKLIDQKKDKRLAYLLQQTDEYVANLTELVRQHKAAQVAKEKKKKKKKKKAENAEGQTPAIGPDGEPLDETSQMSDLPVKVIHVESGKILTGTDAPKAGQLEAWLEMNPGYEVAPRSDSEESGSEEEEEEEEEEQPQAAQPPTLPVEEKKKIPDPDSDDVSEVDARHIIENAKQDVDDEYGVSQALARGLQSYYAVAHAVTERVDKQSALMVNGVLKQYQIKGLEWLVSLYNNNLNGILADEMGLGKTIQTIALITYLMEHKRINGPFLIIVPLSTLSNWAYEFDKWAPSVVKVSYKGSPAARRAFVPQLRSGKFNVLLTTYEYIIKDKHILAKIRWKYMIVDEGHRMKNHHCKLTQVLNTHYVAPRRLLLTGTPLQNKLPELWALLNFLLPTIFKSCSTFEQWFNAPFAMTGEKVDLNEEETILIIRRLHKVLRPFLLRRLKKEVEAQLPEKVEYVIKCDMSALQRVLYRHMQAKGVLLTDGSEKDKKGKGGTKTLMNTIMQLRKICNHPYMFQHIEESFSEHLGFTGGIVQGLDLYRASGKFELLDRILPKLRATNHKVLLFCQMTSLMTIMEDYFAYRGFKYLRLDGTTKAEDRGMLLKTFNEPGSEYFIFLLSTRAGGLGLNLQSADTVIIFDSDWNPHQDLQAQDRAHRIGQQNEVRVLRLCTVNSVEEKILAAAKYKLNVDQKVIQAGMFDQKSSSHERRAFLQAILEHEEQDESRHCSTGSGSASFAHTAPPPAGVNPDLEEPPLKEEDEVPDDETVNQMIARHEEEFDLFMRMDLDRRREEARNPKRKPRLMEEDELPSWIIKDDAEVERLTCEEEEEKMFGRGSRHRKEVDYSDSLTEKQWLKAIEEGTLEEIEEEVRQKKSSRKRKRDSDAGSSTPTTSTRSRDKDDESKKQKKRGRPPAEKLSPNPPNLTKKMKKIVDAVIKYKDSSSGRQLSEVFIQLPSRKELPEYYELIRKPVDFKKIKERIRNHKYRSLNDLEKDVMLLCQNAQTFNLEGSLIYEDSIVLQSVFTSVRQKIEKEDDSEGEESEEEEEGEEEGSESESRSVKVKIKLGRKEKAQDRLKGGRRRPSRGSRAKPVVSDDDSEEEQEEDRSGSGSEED
Experiment: HiBit-BRG1 cell-based degradation assay (Nano-Glo HiBiT Lytic Detection)
Conditions: HeLa cells expressing HiBit-BRG1 and LgBit, 24 h; read-out: BRG1 HiBit Degradation Maximum (%)

# annotated cases, reported Dmax shown
Nc1nnc(-c2ccccc2O)cc1N1CCN(CC(=O)NC2CCN(CCOc3ccc4c(c3)C(=O)N(C3CCC(=O)NC3=O)C4=O)CC2)CC1 (stereo not shown)	< 50%
Cc1ncsc1-c1ccc([C@H](C)NC(=O)[C@@H]2C[C@@H](O)CN2C(=O)[C@@H](c2cc(OCCN3CCC(OC4CCN(C(=O)c5ccc(CCOc6cc(-c7ccccc7O)nnc6N)cc5)CC4)CC3)no2)C(C)C)cc1	> 50%
Nc1nnc(-c2ccccc2O)cc1OCCc1ccc(C(=O)NCCCCC(=O)NCc2ccc(S(=O)(=O)Nc3cccc4c(Cl)c[nH]c34)cc2)cc1	< 50%
Nc1nnc(-c2ccccc2O)cc1N1CCN(CCNC(=O)CCCCCCCCNc2ccc3c(c2)C(=O)N(C2CCC(=O)NC2=O)C3=O)CC1 (stereo not shown)	< 50%

Turning to the following compound.
(Q) Given Nc1nnc(-c2ccccc2O)cc1OCCc1ccc(C(=O)NCCCCCCCCCCC(=O)NCc2ccc(S(=O)(=O)Nc3cccc4c(Cl)c[nH]c34)cc2)cc1 , respond with its Dmax.
(A) < 50%

----------
Target: HiBit-BRG1 (Homo sapiens, UniProt P51532)
Construct: expressed in transfected cells
Assay: HiBit-BRG1 cell-based degradation assay (Nano-Glo HiBiT Lytic Detection)
Conditions: HeLa cells expressing HiBit-BRG1 and LgBit, 24 h; read-out: BRG1 HiBit Degradation IC50
test.readout: DC50

Nc1nnc(-c2ccccc2O)cc1OCCc1ccc(C(=O)NCCCCCOc2cccc3c2C(=O)N(C2CCC(=O)NC2=O)C3=O)cc1 (centres unmarked)	> 1000 nM

(Q) Given Cc1ncsc1-c1ccc([C@H](C)NC(=O)[C@@H]2C[C@@H](O)CN2C(=O)[C@@H](c2cc(OCCN3CC4CN(C(=O)c5ccc(CCOc6cc(-c7ccccc7O)nnc6N)cc5)CC43)no2)C(C)C)cc1 (some centres unmarked) , respond with its DC50.
(A) > 100 nM

(Q) Given Cc1ncsc1-c1ccc(CNC(=O)[C@@H]2C[C@@H](O)CN2C(=O)[C@@H](NC(=O)CCCCCCCCCNCc2ccc(CCN(C)c3cc(-c4ccccc4O)nnc3N)cc2)C(C)(C)C)cc1 , respond with its DC50.
(A) > 100 nM

(Q) Given Cc1ncsc1-c1ccc([C@H](C)NC(=O)[C@@H]2C[C@@H](O)CN2C(=O)[C@@H](c2cc(OCCN3CCN(CC(=O)NCc4ccc(CCOc5cc(-c6ccccc6O)nnc5N)cc4)CC3)no2)C(C)C)cc1 , respond with its DC50.
(A) > 100 nM

(Q) Given Nc1nnc(-c2ccccc2O)cc1OCCc1ccc(CNCCCCCNc2cccc3c2C(=O)N(C2CCC(=O)NC2=O)C3=O)cc1 (centres unmarked) , respond with its DC50.
(A) > 1000 nM

----------
Entries and their measured DC50 follow.
Molecular target: HiBiT-BRM (Homo sapiens)
Construct: expressed in transfected cells
Test: HiBiT-BRM cell-based degradation assay (Nano-Glo HiBiT Lytic Detection)
Settings: HeLa cells expressing HiBiT-BRM, 24 h; read-out: BRM HiBit Degradation IC50
Structures can show the parent of a compound that is named as a salt.

Cc1ncsc1-c1ccc([C@H](C)NC(=O)[C@@H]2C[C@@H](O)CN2C(=O)[C@@H](c2cc(OCCN3CC(C(=O)NCc4ccc(CCOc5cc(-c6ccccc6O)nnc5N)cc4)C3)no2)C(C)C)cc1 [Compound 178]	> 0.1 µM
Cc1ncsc1-c1ccc(CNC(=O)[C@@H]2C[C@@H](O)CN2C(=O)[C@@H](NC(=O)CCCCCCCCCNC(=O)c2ccc(CCN(C)c3cc(-c4ccccc4O)nnc3N)cc2)C(C)(C)C)cc1 [Compound 20]	> 0.01 µM
Nc1nnc(-c2ccccc2O)cc1OCCc1ccc(C(=O)NCCOCCOCCNc2cccc3c2CN(C2CCC(=O)NC2=O)C3=O)cc1 (centres unmarked) [Compound 54]	> 1 µM
Cc1ncsc1-c1ccc(CNC(=O)[C@@H]2C[C@@H](O)CN2C(=O)[C@@H](NC(=O)CCCCN2CCN(CCOc3cc(N4[C@@H]5CC[C@H]4CN(c4cc(-c6ccccc6O)nnc4N)C5)ccn3)CC2)C(C)(C)C)cc1 [Compound 234]	> 0.1 µM

(Q) Given Nc1nnc(-c2ccccc2O)cc1OCCc1ccc(CNCCNc2cccc3c2C(=O)N(C2CCC(=O)NC2=O)C3=O)cc1 (centres unmarked) [Compound 109, formic acid salt] , respond with its DC50.
(A) > 1 µM

----------
Entries and their measured DC50 follow.
Biological target: HiBiT-BRM (Homo sapiens)
Construct: expressed in transfected cells
Assay: HiBiT-BRM cell-based degradation assay (Nano-Glo HiBiT Lytic Detection)
Conditions: HeLa cells expressing HiBiT-BRM, 24 h; read-out: BRM HiBit Degradation IC50

Nc1nnc(-c2ccccc2O)cc1N1CCN(CCNC(=O)CCCCOc2cccc3c2C(=O)N(C2CCC(=O)NC2=O)C3=O)CC1 (centres unmarked)	> 1000 nM
Cc1ncsc1-c1ccc(CNC(=O)[C@@H]2C[C@@H](O)CN2C(=O)[C@@H](NC(=O)CCN2CCC(C(=O)NCc3ccc(CCOc4cc(-c5ccccc5O)nnc4N)cc3)CC2)C(C)(C)C)cc1	> 1000 nM
Cc1ncsc1-c1ccc([C@H](C)NC(=O)[C@@H]2C[C@@H](O)CN2C(=O)[C@@H](NC(=O)CCCCCCCCCNC(=O)c2ccc(CCOc3cc(-c4ccccc4O)nnc3N)cc2)C(C)(C)C)cc1	> 100 nM
Cc1ncsc1-c1ccc(CNC(=O)[C@@H]2C[C@@H](O)CN2C(=O)[C@@H](NC(=O)CCN2CC(CC(=O)NCc3ccc(CCOc4cc(-c5ccccc5O)nnc4N)cc3)C2)C(C)(C)C)cc1	> 1000 nM

(Q) Given Cc1ncsc1-c1ccc(CNC(=O)[C@H]2C[C@H](O)CN2C(=O)[C@H](NC(=O)CCCCCNC(=O)CN2CCN(c3cc(-c4ccccc4O)nnc3N)CC2)C(C)(C)C)cc1 (stereo in doubt) , respond with its DC50.
(A) > 1000 nM

----------
Entries and their measured DC50 follow.
Target: HiBit-BRG1 (Homo sapiens, UniProt P51532)
Construct: expressed in transfected cells
Assay: HiBit-BRG1 cell-based degradation assay (Nano-Glo HiBiT Lytic Detection)
Settings: HeLa cells expressing HiBit-BRG1 and LgBit, 24 h; read-out: BRG1 HiBit Degradation IC50
Structures can show the parent of a compound that is named as a salt.

# annotated cases, reported DC50 shown
Nc1nnc(-c2ccccc2O)cc1OCCc1ccc(CNCCCC2CN(c3cccc4c3C(=O)N(C3CCC(=O)NC3=O)C4=O)C2)cc1 (centres unmarked) [Compound 114]	> 1 µM
Cc1ncsc1-c1ccc(CNC(=O)[C@@H]2C[C@@H](O)CN2C(=O)[C@@H](NC(=O)CCN2CCC(CC(=O)NCc3ccc(CCOc4cc(-c5ccccc5O)nnc4N)cc3)CC2)C(C)(C)C)cc1 [Compound 181]	> 1 µM

(Q) Given Cc1nc2cccc(NCCCCCCCCNC(=O)c3ccc(CCOc4cc(-c5ccccc5O)nnc4N)cc3)c2c(=O)n1C1CCC(=O)NC1=O (centres unmarked) [Compound 45] , respond with its DC50.
(A) > 1 µM

(Q) Given Cc1ncsc1-c1ccc([C@H](C)NC(=O)[C@@H]2C[C@@H](O)CN2C(=O)[C@@H](c2cc(OCCN3CCC(O)(C(=O)NCc4ccc(CCOc5cc(-c6ccccc6O)nnc5N)cc4)CC3)no2)C(C)C)cc1 [Compound 206] , respond with its DC50.
(A) > 0.1 µM

(Q) Given CN(CCCCCOc1cccc2c1C(=O)N(C1CCC(=O)NC1=O)C2=O)Cc1ccc(CCN(C)c2cc(-c3ccccc3O)nnc2N)cc1 (centres unmarked) [Compound 145, formate] , respond with its DC50.
(A) > 1 µM
